# target: recombinant QR2 (Homo sapiens, UniProt P16083)
# Sequence (P16083 whole entry): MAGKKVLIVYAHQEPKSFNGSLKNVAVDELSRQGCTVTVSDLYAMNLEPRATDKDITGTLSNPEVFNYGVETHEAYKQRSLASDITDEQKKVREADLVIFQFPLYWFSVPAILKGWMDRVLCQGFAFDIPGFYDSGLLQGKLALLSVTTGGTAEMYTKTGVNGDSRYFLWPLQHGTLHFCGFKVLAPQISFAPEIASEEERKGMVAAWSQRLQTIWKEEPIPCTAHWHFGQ
# assay-protocol: Inhibition of QR2 activity in vitro (absorbance at 365 nm, NmeH/menadione)
# Assay type: biochemical
# condition-label: average of the determinations; read-out: IC50 Average
readout-kind: pIC50
To interpret pIC50, take it as minus log10 of a concentration measured in moles per litre.

[[record]]
compound = "Clc1ccc2cc(-c3ccccc3)cnc2c1"
endpoint_value = 4.36

[[record]]
compound = "CNc1ccnc2cc(Cl)ccc12"
endpoint_value = 6.89

[[record]]
compound = "Clc1ccc2c(NC3=NC4C=CC=CC4N3)ccnc2c1 (stereo not drawn)"
endpoint_value = 5.49

[[record]]
compound = "CCC(CC)(CCC#N)CNc1cc(OC)cc2cccnc12"
endpoint_value = 4.99

[[record]]
compound = "OCCN(CCO)CCCNc1cc(C(F)(F)F)nc2c(C(F)(F)F)cccc12"
endpoint_value = 3.62

[[record]]
compound = "Clc1ccc2c(OCc3ccccn3)ccnc2c1"
endpoint_value = 4.10

[[record]]
compound = "Clc1ccc2c(SCc3ccccn3)ccnc2c1"
endpoint_value = 4.13

[[record]]
compound = "Clc1ccc2c(NCCc3ccccn3)ccnc2c1"
endpoint_value = 5.42


Qu. Item under review: OC(c1cc(C(F)(F)F)nc2c(C(F)(F)F)cccc12)C1CCCCN1 (stereo not drawn) [mefloquine, reference compound] . Reported pIC50?
Ans. 4.48
